Entry source: ChEMBL document CHEMBL1155931

Test system: DNA
Assay: Binding affinity to calf thymus DNA assessed as change in melting temperature at concentration of 0.1 [compound]/[DNA]
Format: nucleic-acid assay
Settings: Bos taurus
Where ΔTm equals or exceeds 7 °C, the correct label is Criterion met; where it does not, the label is Criterion not met.

Consider the worked cases shown below.
CN(C)CCN1C(=O)c2cccc3c(Sc4nc5ccccc5s4)ccc(c23)C1=O    Criterion not met
CCSc1ccc2c3c(cccc13)C(=O)N(CCN(C)C)C2=O    Criterion met
CCSc1ccc2c3c(cccc13)C(=O)N(CCS)C2=O    Criterion not met

Check the entry CN(C)CCN1C(=O)c2cccc3c(Sc4ccccc4N)ccc(c23)C1=O : does ΔTm equal or exceed 7 °C? Criterion met

Check the entry CCCCSc1ccc2c3c(cccc13)C(=O)N(CCN(C)C)C2=O : does ΔTm equal or exceed 7 °C? Criterion met

Check the entry CN(C)CCN1C(=O)c2cccc3cccc(c23)C1=O : does ΔTm equal or exceed 7 °C? Criterion not met

---

System: MCF7
Test: Antiproliferative activity against human MCF7 cells after 24 hrs of drug exposure followed by 72 hrs incubation in drug free media
Assay type: functional, cell-based
Labelling: IC50 reported below 5 µM becomes 1 (yes); at or above becomes 0 (no).

CN(C)CCN1C(=O)c2cccc3c(SCc4ccccc4)ccc(c23)C1=O    0 (no)
CN(C)CCN1C(=O)c2cccc3cccc(c23)C1=O    0 (no)
CN(C)CCN1C(=O)c2cccc3c2c(cc2c4ccccc4sc32)C1=O    1 (yes)
CN(C)CCN1C(=O)c2cccc3c(Sc4ccccc4N)ccc(c23)C1=O    1 (yes)
CCCCSc1ccc2c3c(cccc13)C(=O)N(CCN(C)C)C2=O    0 (no)
CCSc1ccc2c3c(cccc13)C(=O)N(CCN(C)C)C2=O    1 (yes)

Hi there! Is IC50 for CCSc1ccc2c3c(cccc13)C(=O)N(CCS)C2=O below 5 µM, do you know? 0 (no)

Hi there! Is IC50 for CN(C)CCN1C(=O)c2cccc3c(Sc4nc5ccccc5s4)ccc(c23)C1=O below 5 µM, do you know? 0 (no)
